biological target: T1, human 4-1BB, full length, on transfected cells (human, UniProt Q07011 24-255); test: FACS, CHOK1-h4-1BB cells; Ab 2 ug/ml
T1 construct: whole, on cells; also called CHOK1-h4-1BB
T1 sequence (Q07011 24-255): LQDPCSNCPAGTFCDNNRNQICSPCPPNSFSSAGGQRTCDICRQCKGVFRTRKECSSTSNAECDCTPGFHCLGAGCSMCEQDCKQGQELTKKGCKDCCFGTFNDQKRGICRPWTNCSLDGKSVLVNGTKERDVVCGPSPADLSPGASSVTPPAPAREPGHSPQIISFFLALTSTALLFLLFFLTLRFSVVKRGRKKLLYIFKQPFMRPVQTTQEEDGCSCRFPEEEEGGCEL
Measure Name: average fluorescence intensity (MFI)
I only need the number, in MFI, no unit after it.

Record excerpt, results attached:
Noted for 52F4G2 (antibody, V domains shown) VH: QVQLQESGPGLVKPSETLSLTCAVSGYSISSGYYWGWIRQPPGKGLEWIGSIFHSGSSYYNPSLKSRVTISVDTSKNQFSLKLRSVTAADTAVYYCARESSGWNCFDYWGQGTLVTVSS VL: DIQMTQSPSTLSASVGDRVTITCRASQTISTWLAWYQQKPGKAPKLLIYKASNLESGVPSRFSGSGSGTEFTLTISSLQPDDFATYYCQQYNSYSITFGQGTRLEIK : its average fluorescence intensity reads 600

Notebook: 119B6G5 (antibody, V domains shown) VH: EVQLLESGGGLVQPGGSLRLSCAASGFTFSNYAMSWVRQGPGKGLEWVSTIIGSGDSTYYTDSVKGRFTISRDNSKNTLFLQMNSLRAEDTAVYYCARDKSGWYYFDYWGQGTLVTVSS VL: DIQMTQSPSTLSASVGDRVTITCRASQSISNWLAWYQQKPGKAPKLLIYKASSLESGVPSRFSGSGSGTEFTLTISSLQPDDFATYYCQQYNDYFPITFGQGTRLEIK , average fluorescence intensity read as 1080

# input for lookup
// sample 172E3E3 (antibody, V domains shown) VH: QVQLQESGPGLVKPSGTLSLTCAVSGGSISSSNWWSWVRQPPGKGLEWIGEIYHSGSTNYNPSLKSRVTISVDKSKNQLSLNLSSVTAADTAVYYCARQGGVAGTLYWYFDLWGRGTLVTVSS VL: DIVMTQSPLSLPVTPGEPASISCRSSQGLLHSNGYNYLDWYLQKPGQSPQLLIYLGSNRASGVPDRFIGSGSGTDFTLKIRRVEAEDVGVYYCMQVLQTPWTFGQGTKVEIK , its average fluorescence intensity was 486

Numbers sourced from patent US20200347144A1.
